# Test system: LOC_OS05G16824-cb004;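 note: purified Escherichia coli-expressed rice kinase domain construct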
# test.name: thermal shift delta Tm vs DMSO control; higher = stronger stabilization (binding)
# condition.details: 12.5 µM; protein concentration 2 µM
Measured thermal shift delta Tm by item
Give the quantity in °C, number only.

Study these solved cases before continuing.
>>> reported_value("CONC(=O)c1ccccc1Nc1cc(Nc2cc(C)nn2C(C)C)ncc1Cl")
8.82
>>> reported_value("Cc1cc(F)c(Nc2ncnc3cc(OCc4ccccc4)ccc23)cc1O")
-1.22
>>> reported_value("C[C@@H]1CN(C(=O)c2ccc(NC(=O)c3cc(O[C@H](C)c4c(Cl)ccc(F)c4Cl)c(N)nn3)cc2)C[C@H](C)N1")
5.94

Proceeding to the next compound to report its thermal shift delta Tm.
Query: So what's the measured thermal shift delta Tm for this one? Cc1ccc(NC(=O)c2cccc(C(C)(C)C#N)c2)cc1Nc1ccc2ncn(C)c(=O)c2c1
Result: -1.17

Where do the numbers come from? From the supplement of paper PMC9694430.
